I'd appreciate it if you could supply inhibition at 10 µM values for the items below.
SYSTEM_NAME: panel of 203 kinases (Homo sapiens)
Construct: purchased DiscoverX (KINOMEscan)
Sequence (P51955 whole entry): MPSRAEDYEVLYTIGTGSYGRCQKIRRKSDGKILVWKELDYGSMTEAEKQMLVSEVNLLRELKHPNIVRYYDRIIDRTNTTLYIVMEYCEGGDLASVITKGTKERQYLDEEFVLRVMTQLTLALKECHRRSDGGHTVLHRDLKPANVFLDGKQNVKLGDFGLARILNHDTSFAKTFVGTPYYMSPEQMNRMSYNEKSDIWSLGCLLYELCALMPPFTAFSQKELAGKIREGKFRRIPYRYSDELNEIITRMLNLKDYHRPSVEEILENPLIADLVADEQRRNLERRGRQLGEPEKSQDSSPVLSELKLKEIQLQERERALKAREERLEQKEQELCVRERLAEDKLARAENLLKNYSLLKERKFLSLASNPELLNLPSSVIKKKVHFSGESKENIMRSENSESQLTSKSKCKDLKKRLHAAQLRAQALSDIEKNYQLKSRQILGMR
METHOD_SUMMARY: KINOMEscan competitive binding, whole panel
STATED_CONDITIONS: 10 µM, n=1; kinase NEK2; read-out: Percent inhibition NEK2
Give the value, in units of %, as a plain number.

Inquiry: Need inhibition at 10 µM of CN1CCN(c2ccc(Nc3nccc(-c4cnn5ncccc45)n3)cc2C#N)CC1 [Compound 1] , thanks.
Reply text: 98.5

Inquiry: # get_value(readout='inhibition at 10 µM', item= Cc1ccc(O)cc1Nc1ccnc(Nc2cccc(C(N)=O)c2)n1 [Compound 3] )
Reply text: 0

Inquiry: Look up inhibition at 10 µM for this compound: COc1ccc(Nc2nccc(-c3cnn4ncccc34)n2)cc1 [Compound 2]
Reply text: 99.9

Inquiry: Entry under review: Nc1ncc2c(-c3ccncc3)c[nH]c2n1 [Compound 11] . Reported inhibition at 10 µM?
Reply text: 0

Inquiry: So what's the measured inhibition at 10 µM for this one? c1ccc(COc2cccc(-c3ccnc4[nH]ccc34)c2)cc1 [Compound 9]
Reply text: 0

Inquiry: // inhibition at 10 µM lookup, key: Fc1cccc(COc2ccc(Nc3ncnc4c3CN(CCN3CCOCC3)CC4)cc2Cl)c1 [Compound 6]
Reply text: 0

Inquiry: What does the record list as inhibition at 10 µM for COc1cc(Nc2nccc(-c3sc(N)nc3-c3cccc(NC(=O)c4c(F)cccc4F)c3)n2)cc(OC)c1OC [Compound 7] ?
Reply text: 100

Inquiry: Record request: inhibition at 10 µM value, item Cc1ccc(O)cc1N(C)c1ccnc(Nc2cccc(S(N)(=O)=O)c2)n1 [Compound 4]
Reply text: 0

Inquiry: Entry under review: C[C@@H](Oc1cc(-c2cnc3ccccn23)sc1C(N)=O)c1ccccc1Cl [Compound 8] . Reported inhibition at 10 µM?
Reply text: 99.4

Inquiry: Please look up its inhibition at 10 µM: Clc1ccc(Nc2ncc(-c3ccccc3)s2)cc1 [Compound 10]
Reply text: 0
